Reference source: patent US20030229005A1

I'd appreciate it if you could supply Selectivity v. Coll-3 values for the items below.
- Test Target: T1, human Gelatinase-A (human, UniProt P08253 110-660, limits assumed)
- T1 sequence (looked up): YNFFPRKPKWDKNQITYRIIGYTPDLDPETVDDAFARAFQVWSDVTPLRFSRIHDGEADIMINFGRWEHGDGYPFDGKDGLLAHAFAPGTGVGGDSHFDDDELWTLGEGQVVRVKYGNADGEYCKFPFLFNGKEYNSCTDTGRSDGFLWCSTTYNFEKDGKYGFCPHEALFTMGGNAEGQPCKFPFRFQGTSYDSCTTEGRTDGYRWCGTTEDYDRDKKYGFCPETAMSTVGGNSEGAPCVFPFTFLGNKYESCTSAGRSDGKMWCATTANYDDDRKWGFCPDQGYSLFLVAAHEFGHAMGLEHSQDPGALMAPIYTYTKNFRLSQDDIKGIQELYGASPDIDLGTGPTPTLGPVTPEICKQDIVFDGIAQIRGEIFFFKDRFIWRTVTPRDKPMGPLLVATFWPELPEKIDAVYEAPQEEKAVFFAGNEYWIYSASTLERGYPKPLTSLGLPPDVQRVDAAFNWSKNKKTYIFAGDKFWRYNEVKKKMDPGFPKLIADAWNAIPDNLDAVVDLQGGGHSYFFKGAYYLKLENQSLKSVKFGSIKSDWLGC
- Procedure Summary: cell-based or functional assay
*1 amine or outer side, *2 acyl side, *3 side chain or, on linkers, in order; H or OH if unused. [ ]: non-standard residue; d: D form. The star is where a group is joined. Dnp = O=[N+]([O-])c1ccc(*)c([N+](=O)[O-])c1; C(Me) = CSC[C@H](N[*:1])C(=O)[*:2]
One number for each entry, in unitless.

List the reported Selectivity v. Coll-3 of each binder below.
1. Dnp-GPLPLHG[C(Me)]-NH2 (SMILES CSC[C@H](NC(=O)CNC(=O)[C@H](Cc1c[nH]cn1)NC(=O)[C@H](CC(C)C)NC(=O)[C@@H]1CCCN1C(=O)[C@H](CC(C)C)NC(=O)[C@@H]1CCCN1C(=O)CNc1ccc([N+](=O)[O-])cc1[N+](=O)[O-])C(N)=O) [Dnp-GPLPLHGC(Me)-NH2]
2. Dnp-GPSPLHG[C(Me)]-NH2 (SMILES CSC[C@H](NC(=O)CNC(=O)[C@H](Cc1c[nH]cn1)NC(=O)[C@H](CC(C)C)NC(=O)[C@@H]1CCCN1C(=O)[C@H](CO)NC(=O)[C@@H]1CCCN1C(=O)CNc1ccc([N+](=O)[O-])cc1[N+](=O)[O-])C(N)=O) [Dnp-GPSPLHGC(Me)-NH2]
3. Dnp-GPVNLHGR[C(Me)]-NH2 (SMILES CSC[C@H](NC(=O)[C@H](CCCNC(=N)N)NC(=O)CNC(=O)[C@H](Cc1c[nH]cn1)NC(=O)[C@H](CC(C)C)NC(=O)[C@H](CC(N)=O)NC(=O)[C@@H](NC(=O)[C@@H]1CCCN1C(=O)CNc1ccc([N+](=O)[O-])cc1[N+](=O)[O-])C(C)C)C(N)=O) [Dnp-…(Me)-NH2]

[out]
1. 20
2. 8
3. 9
